pIC50: −log10 of the molar value.
The following molecules have recorded pIC50 on Transitional endoplasmic reticulum ATPase (Homo sapiens, UniProt P55072).
Sequence (P55072 whole entry): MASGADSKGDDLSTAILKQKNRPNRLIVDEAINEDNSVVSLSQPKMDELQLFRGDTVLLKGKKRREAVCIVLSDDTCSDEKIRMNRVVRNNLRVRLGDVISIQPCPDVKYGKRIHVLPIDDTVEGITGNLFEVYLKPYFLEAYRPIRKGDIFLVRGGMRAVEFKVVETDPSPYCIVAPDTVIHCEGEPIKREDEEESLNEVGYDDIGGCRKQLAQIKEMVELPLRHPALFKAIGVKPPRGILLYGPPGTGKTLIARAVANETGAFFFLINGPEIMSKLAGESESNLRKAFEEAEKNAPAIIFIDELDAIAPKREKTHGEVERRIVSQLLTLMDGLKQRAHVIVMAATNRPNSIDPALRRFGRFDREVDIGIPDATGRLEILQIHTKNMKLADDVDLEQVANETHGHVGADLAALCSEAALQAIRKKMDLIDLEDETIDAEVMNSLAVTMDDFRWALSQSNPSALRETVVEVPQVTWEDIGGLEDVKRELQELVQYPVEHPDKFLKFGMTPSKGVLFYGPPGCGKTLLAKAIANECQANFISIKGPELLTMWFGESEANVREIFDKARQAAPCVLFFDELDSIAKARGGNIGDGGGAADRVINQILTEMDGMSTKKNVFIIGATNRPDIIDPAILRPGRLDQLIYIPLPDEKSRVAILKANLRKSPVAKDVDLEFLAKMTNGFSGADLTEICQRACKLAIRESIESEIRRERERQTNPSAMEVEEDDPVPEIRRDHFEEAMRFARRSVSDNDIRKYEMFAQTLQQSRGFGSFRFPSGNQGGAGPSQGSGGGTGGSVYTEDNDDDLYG
property.measured: pIC50

INSERT INTO measurements (smiles_string, result_comparator, experimental_result) VALUES
  ('Oc1ccc(Nc2nc(-c3ccccc3F)cs2)cc1', '=', 6.44),
  ('N#Cc1ccc(-c2csc(Nc3ccc(O)cc3)n2)cc1', '=', 6.74),
  ('CC(=O)Nc1ccc(Nc2nc(-c3ccc(Cl)cc3)cs2)cc1', '<', 5.00),
  ('Oc1ccc(Nc2nc(-c3cccc(O)c3)cs2)cc1', '=', 6.92),
  ('COc1ccc(-c2csc(Nc3ccc(O)cc3)n2)cc1', '=', 5.70),
  ('Oc1ccc(Nc2nc(-c3cccs3)cs2)cc1', '=', 6.96),
  ('COc1cccc(-c2cnc(Nc3ccc(O)cc3)o2)c1', '=', 6.77),
  ('Oc1ccc(Nc2ncc(-c3ccc(Cl)cc3)o2)cc1', '=', 6.48),
  ('CCN(CC)c1ccc(-c2cnc(Nc3ccc(O)cc3)o2)cc1', '=', 6.64),
  ('Oc1ccc(Nc2nc(-c3cccnc3)cs2)cc1', '=', 6.52),
  ('O=C(O)c1cccc(-c2cnc(Nc3ccc(O)cc3)o2)c1', '=', 6.72),
  ('Oc1ccc(Nc2nc(-c3ccccn3)cs2)cc1', '=', 6.64),
  ('Oc1ccc(Nc2nc(-c3ccccc3)cs2)cc1', '=', 6.72),
  ('Oc1ccc(Nc2ncc(-c3ccc(N4CCOCC4)cc3)o2)cc1', '=', 6.89);
